Source: ChEMBL document CHEMBL4229500

What Efficacy was measured for each of the following?
- SYSTEM_NAME: Transient receptor potential cation channel subfamily V member 1 (Homo sapiens, UniProt Q8NER1)
- Sequence (Q8NER1 whole entry): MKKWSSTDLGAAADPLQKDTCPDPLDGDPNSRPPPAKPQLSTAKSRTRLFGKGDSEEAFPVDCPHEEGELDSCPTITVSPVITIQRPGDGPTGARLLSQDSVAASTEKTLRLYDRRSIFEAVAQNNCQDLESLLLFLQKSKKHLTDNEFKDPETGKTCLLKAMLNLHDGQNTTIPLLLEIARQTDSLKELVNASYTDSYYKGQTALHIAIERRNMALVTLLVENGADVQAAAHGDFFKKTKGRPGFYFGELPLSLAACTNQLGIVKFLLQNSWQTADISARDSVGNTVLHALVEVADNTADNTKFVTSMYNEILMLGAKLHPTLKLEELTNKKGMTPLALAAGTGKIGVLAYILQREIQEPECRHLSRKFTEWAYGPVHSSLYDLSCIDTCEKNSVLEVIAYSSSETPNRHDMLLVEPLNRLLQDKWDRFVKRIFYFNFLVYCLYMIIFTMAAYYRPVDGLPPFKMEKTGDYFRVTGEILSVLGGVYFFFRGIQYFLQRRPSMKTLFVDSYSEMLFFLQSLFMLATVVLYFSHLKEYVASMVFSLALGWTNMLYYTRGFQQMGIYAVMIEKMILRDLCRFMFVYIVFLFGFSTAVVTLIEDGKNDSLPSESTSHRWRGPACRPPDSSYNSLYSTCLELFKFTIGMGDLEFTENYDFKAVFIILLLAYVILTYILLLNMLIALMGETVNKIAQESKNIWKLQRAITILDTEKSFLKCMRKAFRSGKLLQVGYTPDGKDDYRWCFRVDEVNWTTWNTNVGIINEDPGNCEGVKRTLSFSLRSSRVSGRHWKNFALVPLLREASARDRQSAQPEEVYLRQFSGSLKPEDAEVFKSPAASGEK
- EXPERIMENTAL_PROTOCOL: Agonist activity at human TRPV1 expressed in HEK293 cells assessed as increase in intracellular calcium level by Fluo-4-AM dye based fluorescence assay relative to ionomycin
- Assay type: cell-based
One number for each entry, in %.

Guide cases for Efficacy, answers given:
(Q) Query (compound): CCCCCc1cc(O)c2c(c1)O[C@]1(C2)[C@@H](C)CCCC1(C)C ; field requested: Efficacy
(A) 43.9

(Q) What about this compound? CCCCCc1cc(O)c2c(c1)O[C@]1(C2)[C@H](C)CCCC1(C)C
(A) 32.3

More entries:
(Q) # get_value(readout='Efficacy', item= CCCCCc1cc(O)c2c(c1)O[C@@]1(C)CCCC(C)(C)[C@H]1C2 )
(A) 48.5

====

- SYSTEM_NAME: UniProt:Q6RI86
- Sequence (Q6RI86 whole entry): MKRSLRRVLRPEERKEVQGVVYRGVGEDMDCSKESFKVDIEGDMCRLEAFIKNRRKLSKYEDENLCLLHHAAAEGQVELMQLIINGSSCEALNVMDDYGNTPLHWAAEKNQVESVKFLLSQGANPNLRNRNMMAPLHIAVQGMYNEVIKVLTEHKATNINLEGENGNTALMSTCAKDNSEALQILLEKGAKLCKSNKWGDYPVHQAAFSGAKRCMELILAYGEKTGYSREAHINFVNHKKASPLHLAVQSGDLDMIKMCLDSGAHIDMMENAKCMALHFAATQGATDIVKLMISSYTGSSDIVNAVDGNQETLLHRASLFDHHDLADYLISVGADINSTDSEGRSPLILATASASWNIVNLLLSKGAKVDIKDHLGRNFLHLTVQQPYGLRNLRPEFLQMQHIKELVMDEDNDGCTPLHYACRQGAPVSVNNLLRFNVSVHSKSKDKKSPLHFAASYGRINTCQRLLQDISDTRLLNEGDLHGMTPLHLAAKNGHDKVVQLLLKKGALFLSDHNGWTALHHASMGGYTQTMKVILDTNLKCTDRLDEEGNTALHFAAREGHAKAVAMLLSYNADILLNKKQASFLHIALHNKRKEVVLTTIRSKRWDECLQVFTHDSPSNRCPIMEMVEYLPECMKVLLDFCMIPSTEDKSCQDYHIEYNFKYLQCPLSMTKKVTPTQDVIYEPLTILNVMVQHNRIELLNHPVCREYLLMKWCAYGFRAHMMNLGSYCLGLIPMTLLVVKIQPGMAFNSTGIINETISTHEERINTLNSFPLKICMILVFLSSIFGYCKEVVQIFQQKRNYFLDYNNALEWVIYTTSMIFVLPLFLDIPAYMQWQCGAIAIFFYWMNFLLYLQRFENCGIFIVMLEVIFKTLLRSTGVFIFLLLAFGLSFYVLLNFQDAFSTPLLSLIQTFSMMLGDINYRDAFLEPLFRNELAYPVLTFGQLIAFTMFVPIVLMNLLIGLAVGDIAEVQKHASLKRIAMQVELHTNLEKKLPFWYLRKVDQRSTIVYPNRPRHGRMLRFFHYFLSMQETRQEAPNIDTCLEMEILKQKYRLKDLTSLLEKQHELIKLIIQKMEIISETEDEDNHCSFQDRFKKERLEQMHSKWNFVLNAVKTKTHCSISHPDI
- EXPERIMENTAL_PROTOCOL: Agonist activity at rat TRPA1 expressed in HEK293 cells assessed as increase in intracellular calcium level by fluo-4-AM dye based fluorescence assay relative to AITC
- Type: cell-based
PROPERTY: Efficacy (%)
Numbers only, in %.

(Q) Form entry - test system: UniProt:Q6RI86; read-out: Efficacy; compound: CCCCCc1cc(O)c2c(c1)OC(C)(CCCC(C)(C)c1ccc(C)cc1)CC2 (stereo unspecified)
(A) 120

(Q) Request: CCCCCc1cc(O)c2c(c1)O[C@@]1(C)CCCC(C)(C)[C@H]1C2
(A) 98.5

(Q) And CCCCCc1cc(O)c2c(c1)O[C@]1(C2)[C@H](C)CCCC1(C)C ?
(A) 102

(Q) Again, but for CCCCCc1cc(O)c2c(c1)O[C@]1(C)CC[C@@H](I)C(C)(C)[C@H]1C2
(A) 90

Would you mind giving Efficacy for every compound in the list below?
1. CCCCCc1cc(O)c2c(c1)O[C@]1(C2)[C@@H](C)CCCC1(C)C
2. CCCCCc1cc(O)c2c(c1)O[C@]1(C)CCCC(C)(C)[C@H]1C2

(A)
108
95.2

====

Exercise: state measured Efficacy for each of the compounds provided.
- SYSTEM_NAME: Transient receptor potential cation channel, subfamily V, member 3 (Rattus norvegicus) (UniProt E9PU00)
- Sequence (whole entry): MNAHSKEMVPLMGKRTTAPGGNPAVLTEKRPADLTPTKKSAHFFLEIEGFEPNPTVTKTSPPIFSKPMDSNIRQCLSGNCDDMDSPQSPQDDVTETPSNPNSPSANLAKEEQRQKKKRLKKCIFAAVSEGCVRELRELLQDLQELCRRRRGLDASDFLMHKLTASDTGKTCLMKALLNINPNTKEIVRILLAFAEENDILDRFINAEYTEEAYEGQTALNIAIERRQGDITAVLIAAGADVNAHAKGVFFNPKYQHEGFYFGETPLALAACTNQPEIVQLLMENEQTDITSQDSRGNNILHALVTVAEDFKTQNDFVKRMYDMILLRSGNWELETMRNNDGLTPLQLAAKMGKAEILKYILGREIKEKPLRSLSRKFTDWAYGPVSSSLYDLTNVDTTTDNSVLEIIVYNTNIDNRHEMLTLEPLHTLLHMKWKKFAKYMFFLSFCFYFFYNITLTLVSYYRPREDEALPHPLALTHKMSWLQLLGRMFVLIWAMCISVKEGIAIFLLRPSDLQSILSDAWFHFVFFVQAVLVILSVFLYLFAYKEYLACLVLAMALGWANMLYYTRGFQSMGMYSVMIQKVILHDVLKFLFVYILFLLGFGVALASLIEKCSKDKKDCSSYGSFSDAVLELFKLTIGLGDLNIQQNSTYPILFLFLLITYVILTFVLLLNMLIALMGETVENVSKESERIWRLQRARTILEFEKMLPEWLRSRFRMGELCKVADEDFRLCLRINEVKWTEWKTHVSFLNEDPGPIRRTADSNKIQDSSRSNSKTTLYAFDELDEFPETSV
- EXPERIMENTAL_PROTOCOL: Agonist activity at […] expressed in HEK293 cells assessed as increase in intracellular calcium level by Fluo-4-AM dye based fluorescence assay relative to ionomycin
- Assay type: cell-based

// batch mode: one Efficacy value per listed entry
1. CCCCCc1cc(O)c2c(c1)O[C@@]1(C)CCCC(C)(C)[C@H]1C2
2. CCCCCc1cc(O)c2c(c1)O[C@]1(C2)[C@H](C)CCCC1(C)C
3. CCCCCc1cc(O)c2c(c1)O[C@]1(C)CCCC(C)(C)[C@H]1C2
4. CCCCCc1cc(O)c2c(c1)O[C@]1(C2)[C@@H](C)CCCC1(C)C

(A)
17.5%
< 10%
< 10%
< 10%

Please go through the list and note Efficacy for each compound.
1. CCCCCc1cc(O)c2c(c1)OC(C)(CCCC(C)(C)c1ccc(C)cc1)CC2 (stereo unspecified)
2. CCCCCc1cc(O)c2c(c1)O[C@]1(C)CC[C@@H](I)C(C)(C)[C@H]1C2

(A)
["< 10%", "< 10%"]
